# Subject Of Test: mouse TAAR1 (Mus musculus (Mouse), UniProt Q923Y8)
# Sequence (Q923Y8 whole entry): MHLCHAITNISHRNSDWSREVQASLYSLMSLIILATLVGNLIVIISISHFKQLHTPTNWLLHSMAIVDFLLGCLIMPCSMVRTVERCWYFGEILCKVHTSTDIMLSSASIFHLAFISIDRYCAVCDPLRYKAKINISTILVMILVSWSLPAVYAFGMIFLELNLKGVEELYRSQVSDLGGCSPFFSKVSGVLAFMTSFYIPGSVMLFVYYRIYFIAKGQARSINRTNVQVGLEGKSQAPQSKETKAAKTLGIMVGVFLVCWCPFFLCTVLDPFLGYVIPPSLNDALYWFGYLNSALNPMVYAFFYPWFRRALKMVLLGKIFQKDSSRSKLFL
# Measurement Protocol: Radioligand binding assay on mouse TAAR1

{"Structure": "O=C(Nc1ccc([C@@H]2O[C@H]3CN[C@@H]2C3)cc1)c1ccc(Cl)cc1", "Ki (nM)": 4.4}
{"Structure": "O=C(Nc1ccc([C@H]2O[C@@H]3CN[C@H]2C3)cc1)c1ccc(C(F)(F)F)cn1", "Ki (nM)": 32.5}
{"Structure": "O=C(Nc1cccc([C@@H]2O[C@H]3CN[C@@H]2C3)c1)c1cccc(Cl)c1", "Ki (nM)": 2990}
{"Structure": "CCOc1ccc(C(=O)Nc2ccc([C@@H]3O[C@H]4CN[C@@H]3C4)cc2)cn1", "Ki (nM)": 6.3}
{"Structure": "O=C(NCc1ccc(C(F)(F)F)cc1)c1ccc([C@@H]2O[C@H]3CN[C@@H]2C3)cc1", "Ki (nM)": 47.7}
{"Structure": "Brc1ccc([C@@H]2O[C@H]3CN[C@@H]2C3)cc1", "Ki (nM)": 145}
{"Structure": "O=C(CCC(F)(F)F)Nc1ccc([C@H]2O[C@@H]3CN[C@H]2C3)cc1", "Ki (nM)": 17.2}
{"Structure": "O=C(Nc1ccc([C@@H]2O[C@H]3CN[C@@H]2C3)cc1)c1ccc(OCC(F)(F)F)nc1", "Ki (nM)": 9.7}
{"Structure": "FC(F)(F)c1cnc(Nc2ccc([C@@H]3O[C@H]4CN[C@@H]3C4)cc2)nc1", "Ki (nM)": 22.1}
